Provenance of the data: patent US20260347373A1

Molecular target: WT KRAS (Homo sapiens, UniProt P01116)
Sequence (P01116 1-188 isoform P01116-2): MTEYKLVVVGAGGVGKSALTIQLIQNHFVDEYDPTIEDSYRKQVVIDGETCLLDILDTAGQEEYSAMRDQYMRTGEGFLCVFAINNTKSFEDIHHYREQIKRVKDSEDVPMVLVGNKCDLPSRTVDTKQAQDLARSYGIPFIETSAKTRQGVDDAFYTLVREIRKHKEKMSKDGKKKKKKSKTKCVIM
Assay: KRAS WT Probe Displacement Assay (TR-FRET, GDP-loaded)
Type: binding
Conditions: KRAS WT, read-out: KRAS^WT Probe Displacement Assay IC50
Entries and their measured IC50 follow.

1) Cc1cc(N)cc(-c2nc3c4c(nc(OCC5(C)CC(F)CN(C6CCOCC6)C5)nc4c2F)N2C[C@H]4CC[C@H](N4)[C@H]2CCO3)c1C(F)(F)F (single isomer, unassigned) [Example 233]: 3 to 1000 nM
2) CN(C)CC1(COc2nc3c4c(nc(-c5cc(N)cc(Cl)c5C(F)(F)F)c(F)c4n2)OCC[C@@H]2[C@@H]4CC[C@H](CN32)N4)CC1(F)F (mixture of isomers): 3 to 1000 nM
3) Cc1cc(N)cc(-c2nc3c4c(nc(O[C@@H](C)[C@@H]5CCCN5C)nc4c2F)N2C[C@H]4CC[C@H](N4)[C@H]2CCO3)c1C(F)(F)F: 3 to 1000 nM
4) Cc1cc(N)cc(-c2nc3c4c(nc(OCC5(CN6CC7CC7(CO)C6)CC5)nc4c2F)N2C[C@H]4CC[C@H](N4)[C@H]2CCO3)c1C(F)(F)F (mixture of isomers): 0.3 to 3 nM

In: Answer with reported IC50 of "Cc1cc(N)cc(-c2nc3c4c(nc(OC[C@@]5(C)CCCN(C6CCOCC6)C5)nc4c2F)N2C[C@H]4CC[C@H](N4)[C@H]2CCO3)c1C(F)(F)F"
Out: 0.3 to 3 nM

----------
Target: WT KRAS (Homo sapiens, UniProt P01116)
Assay: KRAS WT Probe Displacement Assay (TR-FRET, GDP-loaded)
Format: binding
Details: KRAS^WT Probe Displacement Assay IC50, KRAS WT
pIC50: −log10 of the molar value. Counter-ions that a name gives are not always drawn.
Outcome measure: pIC50

1. Cc1cc(N)cc(-c2nc3c4c(nc(OCC5(CN6C7COCC6C7)CC5)nc4c2F)N2C[C@H]4CC[C@H](N4)[C@H]2CCO3)c1C(F)(F)F [Example 104, formate]: 6.00 to 8.52
2. Cc1cc(N)cc(-c2nc3c4c(nc(OCC5(CN6CCC(=C(F)F)CC6)CC5)nc4c2F)N2C[C@H]4CC[C@H](N4)[C@H]2CCO3)c1C(F)(F)F: 8.52 to 9.52
3. Cc1cc(N)cc(-c2nc3c4c(nc(OCC5(CN6CCC(=C(F)F)C6)CC5)nc4c2F)N2C[C@H]4CC[C@H](N4)[C@H]2CCO3)c1C(F)(F)F: 6.00 to 8.52
4. Cc1cc(N)cc(-c2nc3c4c(nc(OCC5(CN6CC[C@@H](F)C6)CC5)nc4c2F)N2C[C@H]4CC[C@H](N4)[C@H]2CCO3)c1C(F)(F)F: 6.00 to 8.52
5. COC1CCCN(CC2(COc3nc4c5c(nc(-c6cc(N)cc(C)c6C(F)(F)F)c(F)c5n3)OCC[C@@H]3[C@@H]5CC[C@H](CN43)N5)CC2)C1 (stereo partly drawn): 6.00 to 8.52

--- query ---
In: Specify reported pIC50 for the compound shown: "CCN1CCN(CC2(COc3nc4c5c(nc(-c6cc(N)cc(C)c6C(F)(F)F)c(F)c5n3)OCC[C@@H]3[C@@H]5CC[C@H](CN43)N5)CC2)CC1"
Out: 6.00 to 8.52
